molecular target: UniProtKB P42574; assay: Affinity Biochemical interaction: (enzymatic assay (fluorogenic substrate cleavage)) EUB0002190aAD CASP3; format: functional; design: mode of action Inhibitor, recommended concentration 1 uM
Sequence (P42574 29-175 limits assumed): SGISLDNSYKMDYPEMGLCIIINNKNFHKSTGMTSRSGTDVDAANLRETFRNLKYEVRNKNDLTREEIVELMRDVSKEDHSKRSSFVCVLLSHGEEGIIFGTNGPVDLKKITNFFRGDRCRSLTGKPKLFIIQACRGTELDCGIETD
Sequence (P42574 176-277 limits assumed): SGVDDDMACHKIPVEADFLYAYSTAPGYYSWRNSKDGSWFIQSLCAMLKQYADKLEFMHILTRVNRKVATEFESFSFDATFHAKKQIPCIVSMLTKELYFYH
pKi: −log10 of the molar value. Residues, ends and D or L forms follow the SMILES beside them. *: point of attachment. Boc = CC(C)(C)OC(=O)*

Molecule | Target Or System | pKi
CC(C)[C@H](NC(=O)[C@H](CCC(=O)O)NC(=O)[C@H](C)NC(=O)OC(C)(C)C)C(=O)N[C@H](C=O)CC(=O)O (Boc-AEVD-aldehyde) | UniProtKB P42574 | 7.38

###

target: High affinity 3',5'-cyclic-AMP phosphodiesterase 7A (Homo sapiens, UniProt Q13946); assay: Affinity Biochemical interaction: (inhibition of enzyme activity with [3H]cGMP or [3H]cAMP as the substrate) EUB0002477a PDE7A
Sequence (Q13946 whole entry): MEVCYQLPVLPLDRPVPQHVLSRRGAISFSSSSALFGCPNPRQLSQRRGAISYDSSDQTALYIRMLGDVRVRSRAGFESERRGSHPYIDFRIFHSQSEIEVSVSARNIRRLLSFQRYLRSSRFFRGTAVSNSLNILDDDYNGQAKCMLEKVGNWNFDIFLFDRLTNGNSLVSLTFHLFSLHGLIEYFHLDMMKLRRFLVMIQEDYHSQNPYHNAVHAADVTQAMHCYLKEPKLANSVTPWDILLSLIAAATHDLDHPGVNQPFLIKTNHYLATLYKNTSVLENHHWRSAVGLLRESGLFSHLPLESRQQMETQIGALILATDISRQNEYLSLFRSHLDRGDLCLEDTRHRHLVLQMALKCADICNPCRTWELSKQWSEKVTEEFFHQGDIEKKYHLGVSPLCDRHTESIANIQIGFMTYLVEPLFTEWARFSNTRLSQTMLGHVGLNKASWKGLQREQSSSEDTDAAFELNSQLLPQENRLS
Readout Type: IC50 (nM)

Smiles | Target Or System | Readout Type | Scale Unit | Value Reported
C[C@H](Nc1nc2c(cnn2C2CCCC2)c(=O)[nH]1)c1ccc(Cl)cc1 | High affinity 3',5'-cyclic-AMP phosphodiesterase 7A (Homo sapiens, UniProt Q13946) | IC50 | nM | 2.5

###

Target: Histone-arginine methyltransferase CARM1 (Homo sapiens, UniProt Q86X55)
Sequence (Q86X55 whole entry): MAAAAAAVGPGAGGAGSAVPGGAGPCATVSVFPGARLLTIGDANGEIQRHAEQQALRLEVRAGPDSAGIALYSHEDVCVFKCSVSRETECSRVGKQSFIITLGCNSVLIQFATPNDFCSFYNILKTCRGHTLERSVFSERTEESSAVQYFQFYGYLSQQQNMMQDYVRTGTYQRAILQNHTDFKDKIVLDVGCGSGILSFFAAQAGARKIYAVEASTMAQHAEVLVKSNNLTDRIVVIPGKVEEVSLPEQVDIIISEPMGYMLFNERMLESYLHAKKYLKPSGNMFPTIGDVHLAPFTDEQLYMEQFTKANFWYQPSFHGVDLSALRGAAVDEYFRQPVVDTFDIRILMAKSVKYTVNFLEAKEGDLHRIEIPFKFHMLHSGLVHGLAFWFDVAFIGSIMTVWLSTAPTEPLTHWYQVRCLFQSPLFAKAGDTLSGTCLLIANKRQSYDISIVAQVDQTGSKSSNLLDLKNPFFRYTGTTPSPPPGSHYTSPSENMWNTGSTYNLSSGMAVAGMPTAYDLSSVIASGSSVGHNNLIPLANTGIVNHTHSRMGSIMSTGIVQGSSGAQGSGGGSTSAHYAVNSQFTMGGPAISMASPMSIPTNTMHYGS
Test: Affinity Biochemical interaction: (enzymatic assay (inhibition of methyl transfer from radiolabelled substrate [3H]SAM to peptide)) EUB0002245aCl CARM1

Smiles | IC50, nM
CCOCC1(COCC)CCC(c2n[nH]cc2CN(C)CCNC)CC1 | 38

###

target: UniProt Q9UGN5; assay: Affinity Biochemical interaction: (inhibition of enzyme activity) EUB0002763a PARP2
Sequence (Q9UGN5 whole entry): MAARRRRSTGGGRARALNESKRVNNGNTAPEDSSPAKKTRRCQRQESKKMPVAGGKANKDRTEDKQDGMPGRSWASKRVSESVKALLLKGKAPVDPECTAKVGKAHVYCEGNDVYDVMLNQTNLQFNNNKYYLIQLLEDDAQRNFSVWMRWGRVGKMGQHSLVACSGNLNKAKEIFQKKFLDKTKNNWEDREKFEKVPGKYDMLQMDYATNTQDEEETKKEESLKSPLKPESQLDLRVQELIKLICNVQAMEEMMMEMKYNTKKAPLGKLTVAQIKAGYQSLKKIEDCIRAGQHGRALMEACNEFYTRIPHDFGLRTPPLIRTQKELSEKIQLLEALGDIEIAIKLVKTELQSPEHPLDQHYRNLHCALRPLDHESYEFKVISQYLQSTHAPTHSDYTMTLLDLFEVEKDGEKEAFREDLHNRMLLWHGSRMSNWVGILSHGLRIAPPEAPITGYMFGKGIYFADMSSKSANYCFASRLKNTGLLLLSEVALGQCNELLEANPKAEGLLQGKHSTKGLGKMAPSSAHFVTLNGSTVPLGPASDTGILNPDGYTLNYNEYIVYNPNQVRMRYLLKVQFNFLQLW
pIC50: −log10 of the molar value.

Smiles | pIC50
O=C(c1cc(Cc2n[nH]c(=O)c3ccccc23)ccc1F)N1CC(CNC2CC2)C1 | 9.00

###

target: Histone acetyltransferase KAT6A (Homo sapiens); assay: Affinity Biochemical interaction: (AlphaScreen) EUB0001094a MYST3
Sequence (Q92794 whole entry): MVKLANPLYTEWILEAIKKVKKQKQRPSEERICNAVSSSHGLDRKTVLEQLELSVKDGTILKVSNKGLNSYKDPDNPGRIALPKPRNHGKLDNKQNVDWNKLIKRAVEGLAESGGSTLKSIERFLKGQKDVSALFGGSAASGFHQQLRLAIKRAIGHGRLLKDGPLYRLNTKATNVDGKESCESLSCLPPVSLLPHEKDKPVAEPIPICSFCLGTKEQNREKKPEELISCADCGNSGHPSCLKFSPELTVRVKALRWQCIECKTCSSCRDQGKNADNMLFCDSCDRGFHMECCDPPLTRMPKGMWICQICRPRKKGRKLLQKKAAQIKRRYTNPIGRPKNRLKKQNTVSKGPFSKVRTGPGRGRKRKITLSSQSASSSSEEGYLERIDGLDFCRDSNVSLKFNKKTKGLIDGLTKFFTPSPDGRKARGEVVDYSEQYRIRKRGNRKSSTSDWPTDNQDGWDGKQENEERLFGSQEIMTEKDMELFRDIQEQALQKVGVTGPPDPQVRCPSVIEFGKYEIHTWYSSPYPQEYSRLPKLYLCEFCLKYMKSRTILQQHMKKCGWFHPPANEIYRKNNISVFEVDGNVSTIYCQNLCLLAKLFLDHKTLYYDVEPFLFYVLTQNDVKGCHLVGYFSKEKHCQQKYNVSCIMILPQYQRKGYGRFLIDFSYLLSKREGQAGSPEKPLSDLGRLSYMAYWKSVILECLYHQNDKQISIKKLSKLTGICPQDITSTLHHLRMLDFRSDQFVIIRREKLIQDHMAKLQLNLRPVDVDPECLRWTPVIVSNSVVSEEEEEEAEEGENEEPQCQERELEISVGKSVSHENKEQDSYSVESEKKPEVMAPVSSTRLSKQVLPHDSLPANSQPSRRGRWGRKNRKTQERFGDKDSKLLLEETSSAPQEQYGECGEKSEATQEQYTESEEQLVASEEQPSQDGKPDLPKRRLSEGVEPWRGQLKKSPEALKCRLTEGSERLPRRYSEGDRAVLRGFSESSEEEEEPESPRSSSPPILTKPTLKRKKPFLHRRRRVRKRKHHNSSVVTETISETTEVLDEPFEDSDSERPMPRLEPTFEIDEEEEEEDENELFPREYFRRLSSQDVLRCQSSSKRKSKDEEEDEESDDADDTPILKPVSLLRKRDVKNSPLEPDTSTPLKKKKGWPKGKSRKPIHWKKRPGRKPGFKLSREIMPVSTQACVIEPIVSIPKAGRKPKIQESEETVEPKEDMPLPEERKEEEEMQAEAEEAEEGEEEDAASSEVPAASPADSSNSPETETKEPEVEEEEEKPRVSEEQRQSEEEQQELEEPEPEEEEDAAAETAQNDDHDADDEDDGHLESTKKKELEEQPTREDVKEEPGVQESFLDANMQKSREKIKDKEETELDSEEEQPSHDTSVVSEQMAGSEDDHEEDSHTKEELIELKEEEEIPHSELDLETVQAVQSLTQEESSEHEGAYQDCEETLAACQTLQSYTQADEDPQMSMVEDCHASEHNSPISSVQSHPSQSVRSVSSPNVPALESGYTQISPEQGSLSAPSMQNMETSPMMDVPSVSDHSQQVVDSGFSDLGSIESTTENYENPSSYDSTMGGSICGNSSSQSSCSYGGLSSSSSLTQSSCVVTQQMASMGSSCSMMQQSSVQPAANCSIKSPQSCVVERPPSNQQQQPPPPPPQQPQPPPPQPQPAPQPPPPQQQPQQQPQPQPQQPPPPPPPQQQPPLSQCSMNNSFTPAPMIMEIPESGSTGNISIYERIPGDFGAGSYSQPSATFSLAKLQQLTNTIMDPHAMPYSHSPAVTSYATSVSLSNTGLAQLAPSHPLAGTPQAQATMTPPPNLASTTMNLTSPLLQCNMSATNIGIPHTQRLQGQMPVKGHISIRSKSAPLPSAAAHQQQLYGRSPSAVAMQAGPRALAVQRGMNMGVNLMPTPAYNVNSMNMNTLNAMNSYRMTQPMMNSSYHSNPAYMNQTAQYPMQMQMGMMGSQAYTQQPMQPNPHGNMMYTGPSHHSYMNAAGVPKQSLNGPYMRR

Smiles | Target Or System | IC50
Cc1cc(-c2ccccc2)cc(C(=O)NNS(=O)(=O)c2cccc(O)c2)c1F | Histone acetyltransferase KAT6A (Homo sapiens) | 17 nM
